Recorded RP-LC retention time, one value per entry.
protocol notes: gradient 5% acetonitrile 3 min, to 50% in 2 min, to 85% in 15 min, held 3 min, 100 µL/min
protocol conditions: column: Zorbax Extend-C18 2.1 x 50 mm; eluents: water / acetonitrile, 0.1% formic acid
Please give a number only; it is taken to be in s.

Guide cases for RP-LC retention time, answers given:
CCNC(=O)N1CCCN(S(C)(=O)=O)CC1
566
Cc1cc2nn(CC(=O)Nc3ccccc3)c(=O)n2c(-c2ccccc2)n1
769
Cc1ccc2c(c1)C(=O)NC1(CCN(C(=O)c3ccc(F)c(Cl)c3)CC1)N2C
919
O=C(NC1CC1)c1nnn(-c2ccccc2)c1-c1cccnc1
691

Okay, next one:
Problem: What does the data say about its RP-LC retention time? Entry: CN(C)CCNC(=O)c1cn(C)nc1S(=O)(=O)N1CCN(c2ccc(Cl)cc2)CC1
Solution: 672

###

protocol notes: gradient 5% acetonitrile 3 min, to 50% in 2 min, to 85% in 15 min, held 3 min, 100 µL/min
protocol conditions: column: Zorbax Extend-C18 2.1 x 50 mm; eluents: water / acetonitrile, 0.1% formic acid
Recorded RP-LC retention time, one value per entry.
Please give a number only; it is taken to be in s.

Problem: What does the data say about its RP-LC retention time? Entry: Cc1ccc(CC(=O)Nc2cc(-c3nnc(C4CC4)o3)sc2C)cc1
Solution: 981

Problem: C[C@]12CC[C@H](O)CC1=CCC1C2CC[C@]2(C)C(n3cnc4ccccc43)=CCC12 (stereo not given in full) ?
Solution: 948

###

protocol notes: gradient 5% acetonitrile 3 min, to 50% in 2 min, to 85% in 15 min, held 3 min, 100 µL/min
protocol conditions: column: Zorbax Extend-C18 2.1 x 50 mm; eluents: water / acetonitrile, 0.1% formic acid
Criterion: RP-LC retention time meeting or surpassing 600 s. Met: Met. Not met: Not met.

Here's what some known entries look like.
COC(=O)c1c(NC(=O)c2ccc([N+](=O)[O-])o2)sc(Cc2ccc3c(c2)OCO3)c1C
Met
CC1CCCCN1CCCNC(=O)CN1C(=O)CSc2cccn2-c2ccccc21 (stereo not given)
Met
CCn1nc(C)c(CCNC(=O)c2cc3c(=O)n(Cc4cccnc4)ccc3nc2C)c1C
Not met
Cc1c(Cl)cccc1NC(=O)Cn1c(C)nc2onc(C)c2c1=O
Met

Could you now consider this next compound?
Problem: Decide: RP-LC retention time of COc1ccc(NC(=O)CN2CCc3[nH]c4c(C)cc(F)cc4c(=O)c3C2)c(OC)c1 >= 600 s?
Solution: Met

###

Recorded RP-LC retention time, one value per entry.
protocol notes: gradient 5% acetonitrile 3 min, to 50% in 2 min, to 85% in 15 min, held 3 min, 100 µL/min
protocol conditions: column: Zorbax Extend-C18 2.1 x 50 mm; eluents: water / acetonitrile, 0.1% formic acid
Please give a number only; it is taken to be in s.

Problem: What does the data say about its RP-LC retention time? Entry: CC(C)c1noc(-c2ccnc(-n3cnc(C(=O)NC4CCCCCC4)c3)c2)n1
Solution: 771

Problem: CCCCN(C)C(=O)c1ccc2c(c1)N(CCC)C(=O)C1CCC(=O)N21 (stereo not given) ?
Solution: 759

Problem: Cc1nc(-c2cccc(NC(=O)CCn3nnc4ccccc4c3=O)c2)cs1 ?
Solution: 739

Problem: O=C(c1cn2cc(Cl)ccc2n1)N1CCN(c2ccccc2F)CC1 ?
Solution: 833

Problem: CCc1c(C(=O)O)nnn1Cc1ccc(OC)cc1 ?
Solution: 734
